# protein stability index values compiled below
B1: PLAGL1 (parent)
chain: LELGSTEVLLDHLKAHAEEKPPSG

- Variants of: B1
- Protocol text: protein stability index of a GFP-peptide fusion (GPS, HEK-293T) (PSI 1-6); higher = more stable;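 also: lentivirally expressed fusions sorted by FACS into six bins by GFP to DsRed ratio, PSI derived from sequencing read proportions per bin multiplied by bin number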
- Experimental parameters: c terminus: a fixed tail appended

Variant notation: K14I
protein stability index: 4.55

Variant notation: E18H
protein stability index: 3.27

Variant notation: A17G
protein stability index: 4.35

Variant notation: D11E
protein stability index: 3.56

Variant notation: H16Q
protein stability index: 4.53

Variant notation: E18T
protein stability index: 3.59

Variant notation: K14V
protein stability index: 4.63

Variant notation: K20S
protein stability index: 4.21

Variant notation: E2R
protein stability index: 3.4

Variant notation: L3R
protein stability index: 5.54

Variant notation: G24A
protein stability index: 4.66

Variant notation: P21L
protein stability index: 3.6

Variant notation: L13I
protein stability index: 4.97

Variant notation: L9I
protein stability index: 4.45

Variant notation: H16S
protein stability index: 4.58

Variant notation: V8L
protein stability index: 3.21

Variant notation: L3Y
protein stability index: 5.45

Variant notation: E7S
protein stability index: 4.81

Variant notation: L1K
protein stability index: 5.53

Variant notation: E19T
protein stability index: 3.55

Variant notation: E2I
protein stability index: 3.18

Variant notation: V8Y
protein stability index: 4.62
